# System: S. mansoni schistosomulae
# assayMethodText: Motility assay on schistosomulae (pixel displacement, relative to DMSO control)
# Format: cell-based, Schistosoma mansoni
# conditionNotes: schistosomulae, secondary screen, 24h exposure, read at D1, 10 µM
# Protocol: Puerto Rican strain Biomphalaria glabrata snails infected with S. mansoni were kindly provided by Dr. Fred Lewis (Biomedical Research Institute and BEI Resources, MD, USA). Schistosomulae were obtained by exposing six to eight weeks-old snails to continuous light for 2 h at 32 °C. […]
Consider the cut-off 2. If the recorded Fractional motility is strictly smaller, the label is TRUE; if not, the label is FALSE.

INSERT INTO assay_data (compound, classlabel) VALUES
  ('COC(=O)C1=CCCN(C)C1', 'TRUE'),
  ('C=C1C(=O)O[C@@H]2/C=C(\C)CC/C=C(\C)CC[C@@H]12 [Costunolide]', 'TRUE'),
  ('CCCN1C[C@H](CSC)C[C@@H]2c3cccc4[nH]cc(c34)C[C@H]21 [Pergolide]', 'FALSE'),
  ('Cc1cnc(-c2cc(N3CCN(C(=O)CCS(C)(=O)=O)CC3)ncc2Cl)c(C)c1', 'TRUE'),
  ('COCCCN1CCC(NC(=O)c2cc(Cl)c(N)c3c2OCC3)CC1 [Prucalopride]', 'FALSE'),
  ('CC(=O)c1cc([N+](=O)[O-])c(Sc2ccc(F)cc2F)s1', 'FALSE'),
  ('CN1CCN(C2=Nc3cc(Cl)ccc3Nc3ccccc32)CC1', 'FALSE'),
  ('CN(C)CCC=C1c2ccccc2CCc2ccccc21', 'FALSE'),
  ('C[C@]12CC[C@@H]3c4ccc(O)cc4CC[C@H]3[C@@H]1CC[C@@H]2O', 'FALSE');

###

# Test system: S. mansoni schistosomulae
# assayMethodText: Motility assay on schistosomulae (pixel displacement, relative to DMSO control)
# Assay type: cell-based, Schistosoma mansoni
# conditionNotes: Schistosoma mansoni; schistosomulae, secondary screen, 24h exposure, read at D1, 1 µM; read-out: Fractional motility
Label t when activity at 1 µM < 80%; otherwise f.

INSERT INTO measurements (compound, targetentity, classlabel) VALUES
  ('Cc1cccc(C(C)c2cnc[nH]2)c1C (stereo not drawn) [Medetomidine]', 'S. mansoni schistosomulae', 't'),
  ('CCOC(=O)C1=C(C)NC(C)=C(C(=O)OCC)C1c1ccccc1/C=C/C(=O)OC(C)(C)C [Lacidipine]', 'S. mansoni schistosomulae', 'f'),
  ('O=C1CCc2ccc(OCCCCN3CCN(c4cccc(Cl)c4Cl)CC3)cc2N1 [Aripiprazole]', 'S. mansoni schistosomulae', 't'),
  ('Cc1c(C(=O)NN2CCCCC2)nn(-c2ccc(Cl)cc2Cl)c1-c1ccc(Cl)cc1 [Rimonabant]', 'S. mansoni schistosomulae', 'f'),
  ('CNCc1ccc(C)c(NC(=O)c2ccc(Nc3nc(-c4ccccc4)c4ccccc4n3)cc2)c1 [BMS-833923]', 'S. mansoni schistosomulae', 't'),
  ('COc1cc(N2CCN(C)CC2)ccc1Nc1nccc(-c2cn(C)c3cnccc23)n1 [AZ191]', 'S. mansoni schistosomulae', 't'),
  ('C=C1C(=O)O[C@H]2[C@H]1CC/C(C)=C/CC[C@@]1(C)O[C@@H]21 [(-)-Parthenolide]', 'S. mansoni schistosomulae', 't'),
  ('CN1CCN(C2=Nc3cc(Cl)ccc3Nc3ccccc32)CC1 [Clozapine]', 'S. mansoni schistosomulae', 'f'),
  ('O=[N+]([O-])C=Cc1ccc2c(c1)OCO2 [MNS, 3,4-methylenedioxy-β-nitrostyrene]', 'S. mansoni schistosomulae', 'f'),
  ('C=CC(=O)Nc1cc(Nc2nccc(-c3cn(C)c4ccccc34)n2)c(OC)cc1N(C)CCN(C)C [AZD9291]', 'S. mansoni schistosomulae', 'f'),
  ('C#C[C@]1(O)C=C[C@H]2[C@@H]3CCC4=CC(=O)CC[C@@H]4[C@H]3CC[C@@]21CC [Gestodene]', 'S. mansoni schistosomulae', 't'),
  ('C[C@]12CC[C@@H]3c4ccc(O)cc4CC[C@H]3[C@@H]1CC[C@@H]2O [Estradiol]', 'S. mansoni schistosomulae', 'f'),
  ('C=CC[C@]1(O)CC[C@H]2[C@@H]3CCC4=CC(=O)CCC4=C3C=C[C@@]21C [Altrenogest]', 'S. mansoni schistosomulae', 'f'),
  ('C[C@@H](NCCCc1cccc(C(F)(F)F)c1)c1cccc2ccccc12 [AMG-073]', 'S. mansoni schistosomulae', 't'),
  ('CCCCCCCCOc1ccccc1C(=O)Nc1ccc(C(=O)OCC[N+](C)(CC)CC)cc1 [Otilonium]', 'S. mansoni schistosomulae', 't'),
  ('COCCn1c2c([n+](Cc3cnccn3)c1C)C(=O)c1ccccc1C2=O [YM155]', 'S. mansoni schistosomulae', 't'),
  ('COCCCC/C(=N\OCCN)c1ccc(C(F)(F)F)cc1 [Fluvoxamine]', 'S. mansoni schistosomulae', 'f'),
  ('CCCCCCCCc1ccc(CCC(N)(CO)CO)cc1 [Fingolimod]', 'S. mansoni schistosomulae', 'f'),
  ('O=C1Cc2cc(CCN3CCN(c4nsc5ccccc45)CC3)c(Cl)cc2N1 [Ziprasidone]', 'S. mansoni schistosomulae', 't'),
  ('NC(=O)C(c1ccccc1)(c1ccccc1)[C@@H]1CCN(CCc2ccc3c(c2)CCO3)C1 [Darifenacin]', 'S. mansoni schistosomulae', 't'),
  ('CN(C)CCCN1c2ccccc2Sc2ccc(Cl)cc21 [Chlorpromazine]', 'S. mansoni schistosomulae', 'f'),
  ('NCC(=O)Nc1ccc(-n2nc(C(F)(F)F)cc2-c2ccc3c(ccc4ccccc43)c2)cc1 [OSU-03012]', 'S. mansoni schistosomulae', 't'),
  ('COCCCN1CCC(NC(=O)c2cc(Cl)c(N)c3c2OCC3)CC1 [Prucalopride]', 'S. mansoni schistosomulae', 'f'),
  ('CN(C)CCC[C@@]1(c2ccc(F)cc2)OCc2cc(C#N)ccc21 [Escitalopram]', 'S. mansoni schistosomulae', 'f'),
  ('CCCCc1oc2ccccc2c1C(=O)c1cc(I)c(OCCN(CC)CC)c(I)c1 [Amiodarone]', 'S. mansoni schistosomulae', 't'),
  ('C=C1C(=O)O[C@@H]2/C=C(\C)CC/C=C(\C)CC[C@@H]12 [Costunolide]', 'S. mansoni schistosomulae', 't');

###

# System: S. mansoni schistosomulae
# assayMethodText: Motility assay on schistosomulae (pixel displacement, relative to DMSO control)
# Type: cell-based, Schistosoma mansoni
# conditionNotes: schistosomulae, secondary screen, 24h exposure, read at D5, 10 µM
In plain terms, low Fractional motility, meaning strictly below -0.7, gives true (1), and everything else gives false (0).

INSERT INTO results (compound, classlabel) VALUES
  ('c1ccc(CNc2nc(NCc3ccccc3)c3ccccc3n2)cc1', 'false (0)'),
  ('Cc1cccc(C(C)c2cnc[nH]2)c1C (stereo not drawn)', 'false (0)'),
  ('CN(C)CCCN1c2ccccc2Sc2ccc(Cl)cc21', 'false (0)'),
  ('C=CC(=O)Nc1cc(Nc2nccc(-c3cn(C)c4ccccc34)n2)c(OC)cc1N(C)CCN(C)C', 'true (1)'),
  ('CCc1ccc(OCc2ccccc2C(=O)Nc2ccc3nc(C)cc(N)c3c2)cc1', 'true (1)'),
  ('CN(C)CCC=C1c2ccccc2CCc2ccccc21', 'false (0)'),
  ('CC(C)(C)c1cc(NC(=O)Nc2ccc(-c3cn4c(n3)sc3cc(OCCN5CCOCC5)ccc34)cc2)no1', 'false (0)'),
  ('C=C1C(=O)O[C@H]2[C@H]1CC/C(C)=C/CC[C@@]1(C)O[C@@H]21 [(-)-Parthenolide]', 'true (1)'),
  ('COc1cc(N2CCC(N)CC2)ccc1Nc1ncc(Cl)c(-c2c[nH]c3ccccc23)n1', 'true (1)');

###

# Test system: S. mansoni schistosomulae
# assayMethodText: Motility assay on schistosomulae (pixel displacement, relative to DMSO control)
# Type: cell-based, Schistosoma mansoni
# conditionNotes: schistosomulae, secondary screen, 24h exposure, read at D5, 10 µM
Think of -0.3 as a floor: if Fractional motility stands on it or above, it is y; beneath it, n.

INSERT INTO measurements (compound, classlabel) VALUES
  ('C=CC(=O)Nc1cccc(Oc2nc(Nc3ccc(N4CCN(C)CC4)cc3OC)ncc2Cl)c1 [WZ4002]', 'n'),
  ('C/C(=N\NC(=S)N1CCC1)c1ccccn1 [NSC319726]', 'n'),
  ('CC(C(O)c1ccc(O)cc1)N1CCC(Cc2ccccc2)CC1 (centres unmarked) [Ifenprodil]', 'y'),
  ('COCCCC/C(=N\OCCN)c1ccc(C(F)(F)F)cc1 [Fluvoxamine]', 'y'),
  ('O=C1CCc2ccc(OCCCCN3CCN(c4cccc(Cl)c4Cl)CC3)cc2N1 [Aripiprazole]', 'n'),
  ('O=C(/C=C/c1ccc2ccccc2n1)c1ccncc1 [PFK15]', 'n'),
  ('O=C(Nc1ccccc1-c1cn2c(CN3CCNCC3)csc2n1)c1cnc2ccccc2n1 [SRT1720]', 'n'),
  ('CCOC(=O)CCNc1cc(N2CCc3ccccc3CC2)nc(-c2ccccn2)n1 [GSK J4]', 'n'),
  ('c1cc(-c2cnn3cc(-c4ccc(N5CCNCC5)cc4)cnc23)c2cccnc2c1 [LDN-212854]', 'n'),
  ('Cc1ccc(S(=O)(=O)c2ccc([N+](=O)[O-])o2)cc1 [NSC697923]', 'n'),
  ('C#C[C@]1(O)C=C[C@H]2[C@@H]3CCC4=CC(=O)CC[C@@H]4[C@H]3CC[C@@]21CC [Gestodene]', 'n'),
  ('C=C1C(=O)O[C@@H]2/C=C(\C)CC/C=C(\C)CC[C@@H]12 [Costunolide]', 'n'),
  ('CCCN1C[C@H](CSC)C[C@@H]2c3cccc4[nH]cc(c34)C[C@H]21 [Pergolide]', 'n'),
  ('CC(=O)c1cc([N+](=O)[O-])c(Sc2ccc(F)cc2F)s1 [P22077]', 'n'),
  ('CCOC(=O)C1=C(C)NC(C)=C(C(=O)OCC)C1c1ccccc1/C=C/C(=O)OC(C)(C)C [Lacidipine]', 'y'),
  ('CCN(CC)CCOc1ccc(C(=C(Cl)c2ccccc2)c2ccccc2)cc1 [Clomifene]', 'y'),
  ('Cc1ccc(C(=O)N(CCCN)[C@@H](c2oc3cc(Cl)ccc3c(=O)c2Cc2ccccc2)C(C)C)cc1 [SB743921]', 'n');
